Tested on: S. aureus DSM 20231;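 further: first quartile when negative (synergy) and third quartile when positive (antagonism)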
EXPERIMENTAL PROTOCOL: Bliss interaction score (quartile over a dose matrix) (fitness difference); higher = more antagonism (negative = synergy)
CONDITION INFO: main component drawn
MEASURED PROPERTY: Bliss interaction score

query: What value of measured Bliss interaction score is listed for CC[C@H](C)[C@H](N)C1=N[C@H](C(=O)N[C@@H](CC(C)C)C(=O)N[C@H](CCC(=O)O)C(=O)N[C@H](C(=O)N[C@H]2CCCCNC(=O)[C@H](CC(N)=O)NC(=O)[C@@H](CC(=O)O)NC(=O)[C@H](Cc3cnc[nH]3)NC(=O)[C@@H](Cc3ccccc3)NC(=O)[C@H]([C@@H](C)CC)NC(=O)[C@@H](CCCN)NC2=O)[C@@H](C)CC)CS1 [Bacitracin] + CCCSc1nc(N[C@@H]2C[C@H]2c2ccc(F)c(F)c2)c2nnn([C@@H]3C[C@H](OCCO)[C@@H](O)[C@H]3O)c2n1 [Ticagrelor] ?
result: -0.27

Source of measurements: the supplement of paper PMC10627819
